- target_or_test_system: AHR (Mus musculus)
- Sequence (P30561 whole entry P471L/N533S/M589L, form open): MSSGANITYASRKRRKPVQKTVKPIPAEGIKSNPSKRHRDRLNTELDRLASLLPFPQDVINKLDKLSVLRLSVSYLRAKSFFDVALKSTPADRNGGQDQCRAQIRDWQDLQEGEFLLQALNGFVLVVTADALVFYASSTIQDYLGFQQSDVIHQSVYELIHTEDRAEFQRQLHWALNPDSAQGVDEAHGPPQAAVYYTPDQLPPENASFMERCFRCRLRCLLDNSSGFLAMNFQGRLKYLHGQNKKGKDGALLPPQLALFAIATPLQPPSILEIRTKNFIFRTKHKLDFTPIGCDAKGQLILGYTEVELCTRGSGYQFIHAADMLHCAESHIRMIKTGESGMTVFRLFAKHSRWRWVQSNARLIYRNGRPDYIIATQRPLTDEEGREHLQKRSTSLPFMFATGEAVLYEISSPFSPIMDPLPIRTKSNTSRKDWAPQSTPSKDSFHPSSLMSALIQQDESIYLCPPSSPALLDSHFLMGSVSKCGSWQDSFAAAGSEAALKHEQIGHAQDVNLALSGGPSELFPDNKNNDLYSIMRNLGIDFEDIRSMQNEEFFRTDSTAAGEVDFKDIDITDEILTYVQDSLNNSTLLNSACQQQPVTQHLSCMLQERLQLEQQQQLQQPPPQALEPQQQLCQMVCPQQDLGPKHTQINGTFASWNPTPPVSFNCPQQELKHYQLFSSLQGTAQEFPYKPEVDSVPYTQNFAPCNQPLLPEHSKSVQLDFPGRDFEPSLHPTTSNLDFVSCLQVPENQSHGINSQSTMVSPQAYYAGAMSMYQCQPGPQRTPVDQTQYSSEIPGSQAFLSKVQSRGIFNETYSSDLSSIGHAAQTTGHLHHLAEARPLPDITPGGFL
- assay_text: In vitro assay 3: antagonism in mouse cell line (AHR transactivation, firefly luciferase reporter, kynurenic acid prestimulated)
- Format: cell-based
- run_parameters: mouse Hepa 1c1c7 cells, 200 μM kynurenic acid, 20 hours, read-out: AHR Antagonism Mouse IC50
# strict inequality: IC50 < 7 nM yields fulfilled, everything else yields not fulfilled

{"compound_string": "O=C1NCCCC[C@H]1Nc1nc2ccccc2c2nc(-c3ccncc3F)nn12", "discrete_label": "not fulfilled"}
{"compound_string": "COc1ccc(-c2nc3c4cc(Br)cc(Br)c4nc(N[C@@H]4CCCCNC4=O)n3n2)cc1", "discrete_label": "not fulfilled"}
{"compound_string": "O=C1NCCCC[C@@H]1Nc1nc2ccccc2c2nc(-c3ccccc3OC(F)F)nn12", "discrete_label": "fulfilled"}
{"compound_string": "COc1cccc(-c2nc3c4ccccc4nc(N[C@@H](C(N)=O)C(C)C)n3n2)c1", "discrete_label": "fulfilled"}
{"compound_string": "O=C1NCCCC[C@H]1Nc1nc2ccccc2c2nc(-c3ccc(OC4CC4)cc3)nn12", "discrete_label": "fulfilled"}
{"compound_string": "CC(C)[C@@H](Nc1nc2ccccc2c2nc(-c3ccccc3)nn12)C(N)=O", "discrete_label": "fulfilled"}
{"compound_string": "COc1ccc(-c2nc3c4cccc(Br)c4nc(N[C@@H]4CNCCNC4=O)n3n2)cc1", "discrete_label": "fulfilled"}
